Test: NCI Yeast Anticancer Drug Screen. Data for the mec2-1 strain (AID 157)
Conditions: S. cerevisiae mec2-1 strain, at 50.0 µM, stronger effect = higher value
About 79,000 compounds went through this panel and 15% of them were active in at least one assay; those are over-represented in the sample as a whole.
Readings of growth inhibition for the listed molecules
Answer format: numeric, % implied, no suffix.

Ask: Give the reported value of growth inhibition for this record: `CCN(CC)C(=O)c1cccc2c1OCO2`
Reply: 13.6

Ask: # return recorded growth inhibition for input `C/C(CC(=O)Nc1ccc(C)c(C)c1)=N\NC(N)=O`
Reply: -28.6

Ask: Return growth inhibition (reported value) for this molecule: `O=C1CCCC(=O)c2c(O)ccc(O)c21`
Reply: -4.15

# context switch: different molecule, same growth inhibition
Ask: Provide only the value of recorded growth inhibition for O=C(OC1COC(OC(=O)c2ccc([N+](=O)[O-])cc2)C(OC(=O)c2ccc([N+](=O)[O-])cc2)C1OC(=O)c1ccc([N+](=O)[O-])cc1)c1ccc([N+](=O)[O-])cc1 (centres undefined)
Reply: 1.65

----------
Assay: NCI Yeast Anticancer Drug Screen. Data for the bub3 strain (AID 167)
Details: S. cerevisiae bub3 mutant strain, at 50.0 µM, stronger effect = higher value
This is part of a sample that, as a whole, favours compounds with a hit. Of some 79,000 tested, about 15% had one in any assay.
# growth inhibition listing for each entry below
All answers are understood in %, so give the number only.

Would you please look over these solved cases?
Ask: Indicate its recorded growth inhibition; the molecule in question is `CC(=O)NCCOC(=O)c1ccccc1`
Reply: 4.05

Ask: Return growth inhibition (reported value) for this molecule: `COc1ccc(N=Nc2c(C)nc(N)nc2C)cc1`
Reply: -14.3

***
Ask: Complete the entry with growth inhibition for O=C(NC(CCS(=O)(=O)n1ccnc1)C(=O)OCc1ccccc1)OCc1ccccc1 (stereo unspecified)
Reply: -4.7

Ask: State, in one line, measured growth inhibition of `C=C(C)Cn1cnc2c1c(=O)n(C)c(=O)n2C`
Reply: -14.1

Ask: Specify growth inhibition for CC(=O)C(c1ccccc1)N(CCO)Cc1ccccc1 (stereo unspecified) and stop.
Reply: 7.45

Ask: Please give measured growth inhibition of the following entry: `O=C(CSc1nnc(Cc2ccccc2)o1)Nc1ccc(Cl)cc1Cl`
Reply: -10.2

----------
Assay: NCI Yeast Anticancer Drug Screen. Data for the sgs1 mgt1 strain (AID 161);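 note: 0% = growth of cultures given vehicle only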
Conditions: S. cerevisiae sgs1 mgt1 strain, at 50.0 µM, stronger effect = higher value
About 79,000 compounds went through this panel and 15% of them were active in at least one assay; those are over-represented in the sample as a whole.
Quantity name: growth inhibition (%)
Entry rule: numbers only, all in %.

Sample answers from the record:
Ask: Kindly indicate its recorded growth inhibition. Item: COC1CCC(C2=NC3CCCCC3SC2)CC1 (stereo not drawn)
Reply: 21.5

Ask: Output measured growth inhibition for this item: `NC(=O)COc1ccc(Br)cc1Br`
Reply: -12.7

***
Ask: Tell me measured growth inhibition for `Nc1cccc(C(F)(F)F)c1N` please.
Reply: -6.7

Ask: Output growth inhibition of `CCCCCC/C(CC(=O)CCC(=O)NCCc1ccccc1)=N\NC(=O)c1ccc2ccccc2c1O`
Reply: 32.6

Ask: Output growth inhibition of `COc1ccc2ccccc2c1NC(C)=O`
Reply: -0.7

Ask: In one line, give reported growth inhibition of the entry COC1OC(COS(C)(=O)=O)C2OC(C)(C)OC12 (stereo not drawn) .
Reply: 3.55

Ask: Given the compound `Nc1ccc(N=Nc2c(S(=O)(=O)O)cc3cc(S(=O)(=O)O)cc(O)c3c2O)cc1` , write its reported growth inhibition.
Reply: -29.5

Ask: Consider the compound `COc1ccc(/C=C2/CCOC2=O)cc1` . State its measured growth inhibition.
Reply: 11.4

Ask: Output measured growth inhibition for this item: Cc1ccc(/C=C/C(=N/Nc2ccccc2)C(C)CN(C)C)cc1 (stereo not drawn)
Reply: -3.25

Ask: Look up and report measured growth inhibition for this entry: `CCN(CC)C(=O)CNC(=O)C(c1ccccc1)c1ccccc1`
Reply: 1.4

Ask: Item `N#CNC(N)=Nc1ccc(Cl)cc1` : provide growth inhibition
Reply: -27.9

Ask: Input `CCC(/C=N\O)CC` , output reported growth inhibition.
Reply: 11.4

Ask: Supply growth inhibition value. Item: `CCN(CC)S(=O)(=O)Nc1c(C)n(C)n(-c2ccccc2)c1=O`
Reply: -4.05

----------
Listing of entries alongside the reported growth inhibition.
Assay: NCI Yeast Anticancer Drug Screen. Data for the rad50 strain (AID 155);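 note: 0% = growth of vehicle-only cultures of the same strain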
Settings: S. cerevisiae rad50 strain growth inhibition; at 50.0 µM; stronger effect = higher value
Method: Growth inhibition of yeast strains with defined genetic alterations is measured as a screen for potential anti-cancer activity. Selected strains with alterations in DNA damage repair or cell cycle control were exposed to compounds and growth inhibition was measured relative to vehicle treated controls. The strain used in this assay is rad50
About 79,000 compounds went through this panel and 15% of them were active in at least one assay; those are over-represented in the sample as a whole.
Output spec: scalar in %, unitless text.

Ask: Note growth inhibition for the molecule shown: `CCOC(OCC)C(N)=O`
Reply: 2.75

Ask: Answer with reported growth inhibition of `O=C(N=Nc1c(O)[nH]c2ccc(Br)cc12)c1ccco1`
Reply: 24.2

Proceed to the following item.
Ask: Tell me growth inhibition reported for `CC(C)(C#N)OC(=O)c1cccc(C(=O)OC(C)(C)C#N)c1Sc1ccccc1`
Reply: 41.8

----------
Quick list: growth inhibition per entry.
Assay: NCI Yeast Anticancer Drug Screen. Data for the bub3 strain (AID 167)
Settings: S. cerevisiae bub3 mutant strain, at 50.0 µM, stronger effect = higher value
About 79,000 compounds went through this panel and 15% of them were active in at least one assay; those are over-represented in the sample as a whole.
Provide the reading as a plain figure in %.

Ask: // fetch growth inhibition given entry `CCOC(=O)OCCCc1ccccc1`
Reply: -7.55

Ask: Return growth inhibition for the following compound: `COc1nc(N)c([N+](=O)[O-])c(OC)n1`
Reply: -9.85

----------
Assay: NCI Yeast Anticancer Drug Screen. Data for the mlh1 rad18 strain (AID 175)
Details: S. cerevisiae mlh1 rad18 strain growth inhibition; at 50.0 µM; stronger effect = higher value
Compounds without any hit were thinned out: in the full panel of roughly 79,000, 15% have a hit.
Kind request: treat 10% as inclusive, so growth inhibition at 10% or higher is fulfilled, anything lower is not fulfilled.

Ask: Does the reported growth inhibition for `CSc1cccc(N=C(C#N)C2=C(O)c3ccccc3C2=O)c1` fall at or above the 10% mark?
Reply: fulfilled

----------
Experiment: NCI Yeast Anticancer Drug Screen. Data for the mec2-1 strain (AID 157)
Conditions: S. cerevisiae mec2-1 strain, at 50.0 µM
The panel holds about 79,000 compounds, 15% with a hit somewhere; the sample as a whole holds those more often. Calls of active or inactive are those of the source. Rule as the data show it: active = growth inhibition above about 70%; inactive = the rest.
Parameter call: string, one of active, inactive

Ask: Record lookup: outcome of this test for Cn1c(=O)c2c(ncn2CCNCC(O)c2cc(C(C)(C)C)c(O)c(C(C)(C)C)c2)n(C)c1=O (stereo not given) ?
Reply: inactive

Ask: Tell me the assay call for `CCOC(CN(C(C)C)C(C)C)OCC` please.
Reply: inactive

Ask: For `Cn1c(C=O)cc2c(Cl)nccc21` , which call appears in the assay record?
Reply: inactive

Ask: Which outcome did this test record for the molecule `NNC(=O)CCCO` ?
Reply: inactive

Ask: // param item: `O=C(O)c1ccccc1C(=O)Nc1ccc2ccccc2c1` ; yields the recorded call
Reply: inactive

New cases:
Ask: Outcome? `Cc1nc2nn(C)cc2c(=O)n1/N=C/c1ccccc1`
Reply: inactive

Ask: Just curious, what result did `COc1cc(OC)c(N=Nc2c(N)nc(N)[nH]c2=O)cc1Cl` get here?
Reply: inactive

Ask: What did this assay record as the result for `Nc1ccccc1C(=O)N/N=C/c1cccnc1` ?
Reply: inactive

Ask: Call for entry `O=[N+]([O-])c1cc(Br)cc2c1nc(NCCO)c1ccccc12` :
Reply: active

Ask: Please let me know the test result on file for CCN(CC)CN1C(=O)C2C3C=CC(C2C1=O)C1C2C(=O)N(CN(CC)CC)C(=O)C2C31 (stereo not given) .
Reply: inactive

----------
Test: NCI Yeast Anticancer Drug Screen. Data for the mec2-1 strain (AID 157)
Settings: S. cerevisiae mec2-1 strain, at 50.0 µM, stronger effect = higher value
This is part of a sample that, as a whole, favours compounds with a hit. Of some 79,000 tested, about 15% had one in any assay.
Each record here notes measured growth inhibition.
Give the value in % but do not write % after it.

Some compounds with known growth inhibition results, for comparison:
Ask: Item CC(=O)OC1CC(OC(C)=O)C(OC(C)=O)CC1OC(C)=O (stereo not drawn) : provide growth inhibition
Reply: -5.15

Ask: Answer with reported growth inhibition of O=C(Nc1ccc(Cl)c(Cl)c1)OC1C=CS(=O)(=O)C1 (stereo not drawn)
Reply: -5.95

Ask: # return recorded growth inhibition for input COc1ccc(C(O)c2ccccc2C(=O)Nc2ccccc2)cc1 (stereo not drawn)
Reply: -9.7

Ask: Let me know recorded growth inhibition for `Cc1nc(=S)c2cnn(-c3ccccc3)c2[nH]1` , thanks.
Reply: -21.2

Ask: Look up and state reported growth inhibition for `Oc1ccccc1C1SCSCS1`
Reply: 12.9

Ask: Provide measured growth inhibition value, entry: `CCN(CC)CCN1C(=O)c2c(c(-c3ccccc3)c3ccccc3c2-c2ccccc2)C1=O`
Reply: 35.2

Ask: Retrieve growth inhibition measured for `OCc1ccccc1CO` and print it.
Reply: -15

Ask: Recall and state the measured growth inhibition for `Cc1ccc(C(=O)NNC(=O)c2ccc3ccccc3c2)cc1` .
Reply: -19.4

Please look at the following compound next.
Ask: Give a short answer stating reported growth inhibition for `N#CC1=C(O)/C(=C\c2ccc(Cl)cc2)N=C1N` .
Reply: -14.3
